This collection of values is drawn from patent US6992079B2.

System: ACHN
test.details: SRB antiproliferative assay
Assay type: cell-based
condition.set: Homo sapiens, ACHN (Renal), 5% FCS/5 day incubation
Description: The cells were passaged using Trypsin (Gibco).
property.label: IC50 (nM)
Entry rule: numbers only, all in nM.

Task: Item under review: O=C(c1ccc([N+](=O)[O-])cc1)N1Cc2ccccc2C(c2ccccc2Cl)c2ccccc21 (centres unmarked) . Reported IC50?
Result: 700

---

tgt: Gardos channel of erythrocytes (Homo sapiens, UniProt O15554)
Construct: endogenous in cells
test.details: Gardos channel assay
property.label: IC50

Task: Fill blank: measured IC50 of the molecule CN1Cc2ccccc2C(c2ccccc2Cl)c2ccccc21 (stereo not shown) is ____.
Result: 0.414 to 0.433 µM

---

Test system: MCF7
test.details: SRB antiproliferative assay
Type: cell-based
condition.set: Homo sapiens, MCF7, MCF7, 5% FCS/3 days
property.label: pIC50
Give only the number. pIC50 is defined as minus log10 of concentration in molar units.

Task: What value of measured pIC50 is listed for O=C(c1ccc([N+](=O)[O-])cc1)N1Cc2ccccc2C(c2ccccc2Cl)c2ccccc21 (stereo not shown) ?
Result: 5.68

---

Test system: A549
test.details: SRB antiproliferative assay
Format: cell-based
condition.set: Homo sapiens, A549, A549 (Lung), 5% FCS/5 day incubation
property.label: IC50 (nM)
Your answer should be a plain number; it is taken to be in nM.

Some compounds with recorded IC50:
INSERT INTO results (compound, unit_of_measurement, obs_value) VALUES
  ('COc1ccc(C(=O)N2Cc3ccccc3C(c3ccccc3Cl)c3ccccc32)cc1 (stereo not drawn)', 'nM', 1100),
  ('COc1ccc2c(c1)CN(C(=O)c1ccc([N+](=O)[O-])cc1)c1ccc(Cl)cc1C2c1ccccc1Cl (stereo not drawn)', 'nM', 1500);

Please examine the following record next.
Task: Field request: IC50 | item: O=C(c1ccc([N+](=O)[O-])cc1)N1Cc2ccccc2C(c2ccccc2Cl)c2ccccc21 (stereo not drawn)
Result: 800

---

Tested on: A549
test.details: SRB antiproliferative assay
Format: cell-based
condition.set: Homo sapiens, A549, A549, 5% FCS/3 days
property.label: pIC50
Please treat pIC50 as minus the base-10 logarithm of the molar concentration.

Task: Item O=C(c1ccc([N+](=O)[O-])cc1)N1Cc2ccccc2C(c2ccccc2Cl)c2ccccc21 (stereo not shown) [Compound 28] has what recorded pIC50?
Result: 5.74

---

Tested on: NIH 3T3 mouse fibroblast cells
test.details: Mitogenic assay (mitogen-induced cell proliferation)
Assay type: cell-based
condition.set: Mus musculus, NIH3T3, 10 μM compound
Items are presented alongside their recorded inhibition at 10 µM.
I only need the number, in %, no unit after it.

INSERT INTO measurements (compound, tgt, obs_value) VALUES
  ('c1ccc(C2c3ccccc3CNc3ccccc32)cc1 (stereo not drawn)', 'NIH 3T3 mouse fibroblast cells', 56);

Task: Need inhibition at 10 µM of COc1cccc2c1C(c1ccccc1Cl)c1cc(Cl)ccc1NC2 (stereo not drawn) , thanks.
Result: 99

Task: What measured inhibition at 10 µM goes with O=C(c1ccccc1)N1Cc2ccccc2C(c2ccccc2)c2ccccc21 (stereo not drawn) ?
Result: 99

Task: Entry O=C(c1ccc2ccccc2c1)N1Cc2ccccc2C(c2ccccc2)c2ccccc21 (stereo not drawn) has what inhibition at 10 µM?
Result: 75

Task: Any idea what its inhibition at 10 µM is? The compound is CN1Cc2ccccc2C(c2ccccc2Cl)c2ccccc21 (stereo not drawn)
Result: 89

Task: Can you share its inhibition at 10 µM? I mean this compound: COc1ccc2c(c1)CN(C(=O)c1ccc([N+](=O)[O-])cc1)c1ccc(Cl)cc1C2c1ccccc1Cl (stereo not drawn)
Result: 99

---

System: HTB174
test.details: SRB antiproliferative assay
Format: cell-based
condition.set: Homo sapiens, HTB174 (Lung), 5% FCS/5 day incubation
property.label: pIC50
Answer as the number alone; pIC50 is minus log10 of concentration in mol/L.

INSERT INTO assay_data (compound, property_label, obs_value) VALUES
  ('Nc1ccc(C(=O)N2Cc3ccccc3C(c3ccccc3Cl)c3ccccc32)cc1 (stereo not drawn) [Compound 34]', 'pIC50', 6.05),
  ('O=C(c1ccc([N+](=O)[O-])cc1)N1Cc2ccccc2C(c2ccccc2)c2ccccc21 (stereo not drawn) [Compound 20]', 'pIC50', 6.15),
  ('COc1ccc(C(=O)N2Cc3ccccc3C(c3ccccc3Cl)c3ccccc32)cc1 (stereo not drawn) [Compound 27]', 'pIC50', 6.52),
  ('O=C(Nc1ccc([N+](=O)[O-])cc1)N1Cc2ccccc2C(c2ccccc2Cl)c2ccccc21 (stereo not drawn) [Compound 35]', 'pIC50', 5.40);

Task: Report pIC50 for COc1ccc(C(=O)N2Cc3ccccc3C(c3ccccc3)c3ccccc32)cc1 (stereo not drawn) [Compound 21] please.
Result: 5.72

Task: Would you kindly share the measured pIC50 for CNc1ccc(C(=O)N2Cc3ccccc3C(c3ccccc3Cl)c3ccccc32)cc1 (stereo not drawn) [Compound 33] ?
Result: 5.85

Task: Given Cc1ccc(C(=O)N2Cc3ccccc3C(c3ccccc3)c3ccccc32)cc1 (stereo not drawn) [Compound 22] , state its recorded pIC50.
Result: 5.85

Task: Quick one: pIC50 of O=C(c1ccc([N+](=O)[O-])cc1)N1Cc2ccccc2C(c2ccccc2Cl)c2ccccc21 (stereo not drawn) [Compound 28] ?
Result: 7.00

---

System: NIH 3T3 mouse fibroblast cells
test.details: Mitogenic assay (mitogen-induced cell proliferation)
Assay type: cell-based
condition.set: Mus musculus, NIH3T3, 10 μM compound
property.label: inhibition at 10 µM
Enter the number, and then the unit.

INSERT INTO results (compound, obs_value) VALUES
  ('COc1cccc2c1C(c1ccccc1Cl)c1cc(Cl)ccc1N(C(=O)c1ccc([N+](=O)[O-])cc1)C2 (stereo not drawn)', '99%'),
  ('CN1Cc2ccccc2C(c2ccccc2)c2cc(Br)ccc21 (stereo not drawn)', '99%'),
  ('O=C(O)C(=O)N1Cc2ccccc2C(c2ccccc2)c2ccccc21 (stereo not drawn)', '32%'),
  ('O=C(Oc1ccccc1)N1Cc2ccccc2C(c2ccccc2)c2ccccc21 (stereo not drawn)', '98%');

Task: Item under review: COC(=O)N1Cc2ccccc2C(c2ccccc2Cl)c2ccccc21 (stereo not drawn) . Reported inhibition at 10 µM?
Result: 99%

Task: So what's the measured inhibition at 10 µM for this one? Clc1ccc2c(c1)C(c1ccccc1)c1cc3ccccc3cc1CN2 (stereo not drawn)
Result: 40%

Task: So what's the measured inhibition at 10 µM for this one? c1ccc(CN2Cc3ccccc3C(c3ccccc3)c3ccccc32)cc1 (stereo not drawn)
Result: 91%

Task: What does the data say about its inhibition at 10 µM? Entry: CNc1ccc(C(=O)N2Cc3ccccc3C(c3ccccc3Cl)c3ccccc32)cc1 (stereo not drawn)
Result: 99%

Task: // inhibition at 10 µM lookup, key: COc1cccc2c1C(c1ccccc1Cl)c1cc(Cl)ccc1N(C(=O)c1ccc(Cl)cc1)C2 (stereo not drawn)
Result: 89%

Task: Which inhibition at 10 µM reading was recorded for the compound Nc1ccc(C(=O)N2Cc3ccccc3C(c3ccccc3Cl)c3ccccc32)cc1 (stereo not drawn) ?
Result: 99%

Task: May I ask what inhibition at 10 µM has been recorded for O=C(Nc1ccc([N+](=O)[O-])cc1)N1Cc2ccccc2C(c2ccccc2Cl)c2ccccc21 (stereo not drawn) ?
Result: 0%

Task: What does the data say about its inhibition at 10 µM? Entry: COc1ccc2c(c1)CN(C(=O)c1ccc(Cl)cc1)c1ccc(Cl)cc1C2c1ccccc1Cl (stereo not drawn)
Result: 55%

Task: Any idea what its inhibition at 10 µM is? The compound is CN1Cc2ccccc2C(c2ccccc2)c2ccccc21 (stereo not drawn)
Result: 99%

Task: So what's the measured inhibition at 10 µM for this one? COc1ccc2c(c1)CNc1ccc(Cl)cc1C2c1ccccc1Cl (stereo not drawn)
Result: 99%

Task: Record request: inhibition at 10 µM value, item O=C(Oc1ccccc1)N1Cc2ccccc2C(c2ccccc2Cl)c2ccccc21 (stereo not drawn)
Result: 99%

Task: Form field: reported inhibition at 10 µM of Clc1ccccc1C1c2ccccc2CN(Cc2ccccc2)c2ccccc21 (stereo not drawn)
Result: 84%

Task: Find the recorded inhibition at 10 µM belonging to O=C(c1ccc([N+](=O)[O-])cc1)N1Cc2ccccc2C(c2ccccc2)c2ccccc21 (stereo not drawn) and report it.
Result: 95%

Task: Quick check: inhibition at 10 µM of COC(=O)N1Cc2ccccc2C(c2ccccc2)c2ccccc21 (stereo not drawn) ?
Result: 87%

---

Test system: MMRU
test.details: SRB antiproliferative assay
Assay type: cell-based
condition.set: Homo sapiens, MMRU, 5% FCS/3 days
property.label: IC50

Task: Field request: IC50 | item: O=C(c1ccc([N+](=O)[O-])cc1)N1Cc2ccccc2C(c2ccccc2Cl)c2ccccc21 (stereo not shown) [Compound 28]
Result: < 1250 nM

---

Test system: A549
test.details: SRB antiproliferative assay
Format: cell-based
condition.set: Homo sapiens, A549, A549 (Lung), 5% FCS/5 day incubation
pIC50: −log10 of the molar value.
The entries below come with measured pIC50 values attached.

INSERT INTO assay_data (molecule, tgt, obs_value) VALUES
  ('O=C(Nc1ccc([N+](=O)[O-])cc1)N1Cc2ccccc2C(c2ccccc2Cl)c2ccccc21 (stereo not drawn)', 'A549', '< 5.30'),
  ('COc1cc([C@@H]2c3cc4c(cc3[C@@H](O[C@@H]3O[C@@H]5CO[C@@H](C)O[C@H]5[C@H](O)[C@H]3O)[C@H]3COC(=O)[C@H]23)OCO4)cc(OC)c1O [VP-16, Etoposide, reference compound]', 'A549', '> 5.90');

Shift focus to the following entry.
Task: I'd like to know its pIC50. The molecule in question is O=C(c1ccccc1)N1Cc2ccccc2C(c2ccccc2)c2ccccc21 (stereo not drawn)
Result: < 5.30
